- study-system: human active recombinant p38α-6His tagged (Homo sapiens, UniProt Q16539)
- Construct: 6His
- Sequence (Q16539 whole entry): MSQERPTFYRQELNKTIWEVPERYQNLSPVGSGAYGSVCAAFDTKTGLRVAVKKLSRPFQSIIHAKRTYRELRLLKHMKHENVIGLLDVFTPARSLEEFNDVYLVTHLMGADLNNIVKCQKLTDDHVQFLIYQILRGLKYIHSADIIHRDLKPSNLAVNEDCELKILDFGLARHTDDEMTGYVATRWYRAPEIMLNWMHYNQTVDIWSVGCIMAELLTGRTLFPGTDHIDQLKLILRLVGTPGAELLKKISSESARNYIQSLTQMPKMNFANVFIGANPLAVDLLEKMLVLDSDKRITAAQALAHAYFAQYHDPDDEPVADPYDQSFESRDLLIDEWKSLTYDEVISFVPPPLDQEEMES
- experiment: p38 Alpha Enzyme Assay (AlphaScreen, biotinylated-ATF2 substrate)
- Assay type: biochemical
- recorded-conditions: pre-incubated 4 hours at 37° C., reaction initiated with ATP; 0.5 nM enzyme; read-out: p38 pIC50 (converted)
Provide the recorded IC50 for the entries that follow.
Give bare numbers, in nM.

// worked examples, IC50 included
Tell me the measured IC50 of Cc1ccc(C(=O)NC2CC2)cc1-c1ccc2c(=O)n(Cc3ccncc3)cc(C(=O)NC3CCNCC3)c2c1 , please.
1.58

Tell me the measured IC50 of Cc1c(F)cc(C(=O)NC2CC2)cc1-c1ccc2c(=O)n(CC3CC3)cc(CN3CCN[C@H](C)C3)c2c1 , please.
0.794

Tell me the measured IC50 of Cc1ccc(C(=O)NC2CC2)cc1-c1ccc2c(=O)n(Cc3ccc(C(=O)N(C)C)cc3)cc(CN3CCCN(C)CC3)c2c1 , please.
0.158

Tell me the measured IC50 of Cc1ccc(C(=O)NC2CC2)cc1-c1ccc2c(=O)n(Cc3ccc(C4CCNCC4)cc3)ccc2c1 , please.
0.501

Here is the next item to consider.
Tell me the measured IC50 of Cc1c(F)cc(C(=O)NC2CC2)cc1-c1ccc2c(=O)n(CC3CC3)cc(CNCCCN(C)C)c2c1 , please.
1.58
